Values were extracted from PubChem BioAssay (NCI).

System: DU-145 prostate
Test protocol: NCI-60 one-dose screen, 48 h
Run conditions: 10 µM unless noted
The panel holds about 83,000 compounds, 20% with a hit somewhere; the sample as a whole holds those more often. Active and inactive are the calls of the source. Rule for the calls: active = growth percent below 10; inactive = the rest.
I would appreciate it if you answered using one of these outcomes: Yes (active), No (inactive)

Examples from the recorded data:
{"Compound": "CCOC(=O)n1ccn(C)c1=S", "Test system": "DU-145 prostate", "Assigned label": "No"}
{"Compound": "COC(=O)c1nc(-c2ccc(C)cc2)oc1S(=O)(=O)c1cccc(OC)c1", "Test system": "DU-145 prostate", "Assigned label": "No"}
{"Compound": "CC(C)(Sc1cc(C(C)(C)C)c(O)c(C(C)(C)C)c1)Sc1cc(C(C)(C)C)c(OC(=O)CCCC(=O)O)c(C(C)(C)C)c1", "Test system": "DU-145 prostate", "Assigned label": "No"}
{"Compound": "CC(C)c1ccc(C(=O)Nc2sc3c(c2C(N)=O)CCC(=O)C3)cc1", "Test system": "DU-145 prostate", "Assigned label": "No"}
{"Compound": "Cc1cccc(/C=C2\\CN(C(=O)OC(C)(C)C)C/C(=C\\c3cccc(C)c3)C2=O)c1", "Test system": "DU-145 prostate", "Assigned label": "No"}
{"Compound": "COc1ccc(-c2ccc(=O)oc2-c2cc(OC)c(OC)c(OC)c2)cc1O", "Test system": "DU-145 prostate", "Assigned label": "Yes"}
{"Compound": "O=C(CSc1nc2ccc([N+](=O)[O-])cc2[nH]1)Nc1ccc([N+](=O)[O-])cc1", "Test system": "DU-145 prostate", "Assigned label": "No"}
{"Compound": "COc1ccc(C(O)c2cc3c(N)c(C(=O)Nc4cccc(Br)c4)sc3nc2C)cc1 (stereo not given)", "Test system": "DU-145 prostate", "Assigned label": "Yes"}

[ask] Could you please tell me the result logged for `Oc1c(Br)cc(Br)c2ccc(Cn3cc(-c4ccc(C(F)(F)F)cc4)nn3)nc12` in this assay?
[reply] No

[ask] Could you please tell me the result logged for `CCOC(=O)c1c2c(n3cccc(F)c13)C(=O)c1ncccc1C2=O` in this assay?
[reply] Yes

[ask] Could you please tell me the result logged for `N=C(N)c1ccc(-c2ccc(-c3ccccc3)o2)cc1` in this assay?
[reply] Yes

[ask] Could you please tell me the result logged for `COc1cc(OC)c(/C=C/C(=O)c2c(OC)cccc2OC)c(OC)c1` in this assay?
[reply] Yes

[ask] Could you please tell me the result logged for `Cc1c[n+](Cc2ccc3ccccc3c2)cn1Cc1ccc2ccccc2c1` in this assay?
[reply] No

[ask] Could you please tell me the result logged for `O=[N+]([O-])c1ccc(O)cc1Br` in this assay?
[reply] No

###

Tested on: NCI-H23 lung
Test protocol: NCI-60 one-dose screen, 48 h
Run conditions: 10 µM unless noted
The panel holds about 83,000 compounds, 20% with a hit somewhere; the sample as a whole holds those more often. The source made the active and inactive calls. The calls were made as follows: active = growth percent below 10; inactive = the rest.
I would appreciate it if you answered using one of these outcomes: T (active), F (inactive)

[ask] Could you please tell me the result logged for `COc1ccc(/C=C(\C#N)n2nnc3cc(Cl)ccc32)cc1` in this assay?
[reply] T

[ask] Could you please tell me the result logged for `CCn1c(SCC(=O)N/N=C(\C)c2ccc(Cl)cc2)nc2c1c(=O)n(C)c(=O)n2C` in this assay?
[reply] F

[ask] Could you please tell me the result logged for `CN(c1cc2ncc(=O)[nH]c2cc1NC(N)=NCc1ccc(Cl)cc1)C1CCCCC1` in this assay?
[reply] F

[ask] Could you please tell me the result logged for `Nc1nc2ccccc2c2c(=O)c3cccc(Cl)c3sc12` in this assay?
[reply] F

[ask] Could you please tell me the result logged for `O=S(=O)(NCCNc1nccc(-c2c(-c3ccc(F)c(O)c3)nc3occn23)n1)c1ccc(Cl)cc1` in this assay?
[reply] F

[ask] Could you please tell me the result logged for COc1cc(C2CC(c3ccc(Nc4nc(Nc5ccc(Cl)cc5)nc(Nc5ccc(Cl)cc5)n4)cc3)=NN2C(C)=O)cc(OC)c1OC (centres undefined) in this assay?
[reply] F

[ask] Could you please tell me the result logged for `CCCCC1=C(P(=O)(O)O)N[C@H](C(=O)O)CS1` in this assay?
[reply] F

[ask] Could you please tell me the result logged for `CCOC(=O)c1ccc2c(c1)nc(-c1ccccc1)n2C1CCCCC1` in this assay?
[reply] F

[ask] Could you please tell me the result logged for `O=C(Nc1nc2ccc(C(=O)N3CCN(/C=C/c4ccccc4)CC3)cc2s1)c1ccc(NCCc2ccccc2)c([N+](=O)[O-])c1` in this assay?
[reply] F

###

Test system: UACC-62 melanoma
Test protocol: NCI-60 one-dose screen, 48 h (100 = growth as untreated, 0 = no growth, -100 = all killed)
Run conditions: 10 µM unless noted
Compounds without any hit were thinned out: in the full panel of roughly 83,000, 20% have a hit.
Categorized via growth: class 1 (below 70%), class 2 (70% to below 90%), class 3 (90% or more)

Examples from the recorded data:
{"Smiles": "CC(C)c1ccc(C(=O)Nc2sc3c(c2C(N)=O)CCC(=O)C3)cc1", "Assigned label": "class 1"}
{"Smiles": "CC(C)C1=NOC(=O)C1=Cc1cn(-c2ccccc2)nc1-c1ccc(F)cc1", "Assigned label": "class 2"}
{"Smiles": "COc1ccc(/C=C(\\C#N)n2nnc3cc(F)c(F)cc32)cc1", "Assigned label": "class 1"}
{"Smiles": "O=C(CN1C(=O)S/C(=C\\C(Cl)=C\\c2ccccc2)C1=O)NCCc1ccc(O)cc1", "Assigned label": "class 1"}

[ask] Into which category would you place `CN(C)c1ccc(C(=O)OCCCCCCl)cc1` ?
[reply] class 3

###

Test system: HOP-62 NSCLC
Test protocol: NCI-60 one-dose screen, 48 h (100 = growth as untreated, 0 = no growth, -100 = all killed)
Run conditions: 10 µM unless noted
Compounds without any hit were thinned out: in the full panel of roughly 83,000, 20% have a hit.
Use label 1 when the recorded growth is no lower than 70%; use label 0 when it is lower.

Examples from the recorded data:
{"Smiles": "CN(C)c1ccc(-c2c(C#N)c(N)nn2C(=O)c2ccc(NC(=O)c3ccccn3)cc2)cc1", "Assigned label": "label 1"}
{"Smiles": "Cc1[nH]c(C(=O)Nc2ccccc2OC2CCNCC2)c(Cl)c1Cl", "Assigned label": "label 0"}
{"Smiles": "CCOC(=O)c1c2c(n3cccc(F)c13)C(=O)c1ncccc1C2=O", "Assigned label": "label 0"}
{"Smiles": "CCCCCCCCCc1ccc(OCCOCCOCCOCCOCCOCCOCCOCCOCCO)cc1", "Assigned label": "label 1"}
{"Smiles": "CCN1CCN(C(=O)[C@]23CCC(C)(C)C[C@@H]2C2=CC[C@@H]4[C@@]5(C)CCC(=O)C(C)(C)[C@@H]5CC[C@@]4(C)[C@]2(C)CC3)CC1", "Assigned label": "label 1"}
{"Smiles": "COC1=CC(c2ccc[nH]2)=N/C1=C\\c1[nH]c(C)c(C(=O)OC(C)C)c1C", "Assigned label": "label 0"}
{"Smiles": "COC(=O)c1c(C)c2n(c1C)C(=O)C(c1ccccc1)=C2", "Assigned label": "label 1"}
{"Smiles": "Cc1ccc2c(c1)=C/C(=C\\c1cc(-c3ccccc3)oc1O)C(=O)N=2", "Assigned label": "label 1"}

[ask] Evaluate `CNC(=O)c1[nH]cc(-c2ccc(OC)cc2)c1-c1cc(OC)c2c(c1OC)OCO2` : growth at minimum 70%?
[reply] label 1

###

System: NCI-H460 lung
Test protocol: NCI-60 one-dose screen, 48 h (100 = growth as untreated, 0 = no growth, -100 = all killed)
Run conditions: 10 µM unless noted
About 83,000 compounds went through this panel and 20% of them were active in at least one assay; those are over-represented in the sample as a whole.
Use 1 when the recorded growth is no lower than 90%; use -1 when it is lower.

Examples from the recorded data:
{"Molecule": "O=C1/C=C/[C@@H](O)[C@@H]2C[C@@H](O)C[C@H]2/C=C/CCC[C@H](CCc2ccccc2)O1", "Assigned label": -1}
{"Molecule": "COc1ccc(Nc2nc(-c3cc(O)c(C)c(C)c3O)cs2)cc1", "Assigned label": -1}
{"Molecule": "C#CCOc1cccc(Nc2ncnc3cc(NC(=O)C=C)ccc23)c1", "Assigned label": -1}
{"Molecule": "CN1C(=O)/C(=C\\c2nc([P+](c3ccccc3)(c3ccccc3)c3ccccc3)c(N3CCOCC3)o2)SC1=S", "Assigned label": 1}
{"Molecule": "COc1ccc(C(=O)C/C(=C\\c2ccc(Cl)cc2)C(=O)NCc2ccccc2)cc1", "Assigned label": -1}
{"Molecule": "CCOC(=O)c1cc2c(n1C)-c1nc(NC(C)=O)sc1CCC2", "Assigned label": 1}
{"Molecule": "Nc1n[nH]c2ccc([C@H]3[C@@H]4C5CCC(C5)[C@@H]4c4c(ccc5[nH]ncc45)N3S(=O)(=O)C3CC3)cc12 (stereo partly drawn)", "Assigned label": -1}
{"Molecule": "CCC1=C[C@@H]2C[C@]3(C(=O)OC)c4[nH]c5ccccc5c4CC[N@+](CC(=O)Nc4cc5c(cc4OC)N(C)[C@H]4[C@@](O)(C(=O)OC)[C@H](OC(C)=O)[C@]6(CC)C=CCN7CC[C@]54[C@@H]76)(C2)[C@H]13", "Assigned label": 1}
{"Molecule": "Oc1c(Br)cc(Br)c2ccc(Cn3cc(-c4ccc(C(F)(F)F)cc4)nn3)nc12", "Assigned label": 1}
{"Molecule": "COc1cc2ncnc(Nc3ccc(S(=O)(=O)Nc4cc(C)on4)cc3)c2cc1OCCCN1CCN(c2ccc(F)cc2)CC1", "Assigned label": 1}

[ask] Evaluate `CCCCCOC(=O)c1c(C)[nH]c(/C=C2\N=C(c3ccc[nH]3)C=C2OC)c1C` : growth at minimum 90%?
[reply] -1

[ask] Evaluate `COC(=O)[C@]1(C)CCC[C@]2(C)[C@H]3C[C@H]4C(C(C)C)=C[C@]3(CC[C@H]21)[C@@H]1C(=O)CC[C@H](OCCC#N)[C@@H]14` : growth at minimum 90%?
[reply] 1
